target: F508delCFTR (Homo sapiens, UniProt P13569, DEL508-508); construct: expressed in transfected cells; host or cells: CFBE41o- human lung-derived epithelial cells (CFBE4lo-F508delCFTR-HRP), doxycycline-inducible; experiment: Cell Surface Expression-Horse Radish Peroxidase (CSE-HRP) Assay; format: cell-based; conditions: with co-corrector (2 μM); maximum at any tested concentration, normalized to on-plate positive control;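 further: co-corrector and positive control are both the same reference corrector at 2 µM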
Sequence (P13569 with tags, fused parts or gaps DEL508-508): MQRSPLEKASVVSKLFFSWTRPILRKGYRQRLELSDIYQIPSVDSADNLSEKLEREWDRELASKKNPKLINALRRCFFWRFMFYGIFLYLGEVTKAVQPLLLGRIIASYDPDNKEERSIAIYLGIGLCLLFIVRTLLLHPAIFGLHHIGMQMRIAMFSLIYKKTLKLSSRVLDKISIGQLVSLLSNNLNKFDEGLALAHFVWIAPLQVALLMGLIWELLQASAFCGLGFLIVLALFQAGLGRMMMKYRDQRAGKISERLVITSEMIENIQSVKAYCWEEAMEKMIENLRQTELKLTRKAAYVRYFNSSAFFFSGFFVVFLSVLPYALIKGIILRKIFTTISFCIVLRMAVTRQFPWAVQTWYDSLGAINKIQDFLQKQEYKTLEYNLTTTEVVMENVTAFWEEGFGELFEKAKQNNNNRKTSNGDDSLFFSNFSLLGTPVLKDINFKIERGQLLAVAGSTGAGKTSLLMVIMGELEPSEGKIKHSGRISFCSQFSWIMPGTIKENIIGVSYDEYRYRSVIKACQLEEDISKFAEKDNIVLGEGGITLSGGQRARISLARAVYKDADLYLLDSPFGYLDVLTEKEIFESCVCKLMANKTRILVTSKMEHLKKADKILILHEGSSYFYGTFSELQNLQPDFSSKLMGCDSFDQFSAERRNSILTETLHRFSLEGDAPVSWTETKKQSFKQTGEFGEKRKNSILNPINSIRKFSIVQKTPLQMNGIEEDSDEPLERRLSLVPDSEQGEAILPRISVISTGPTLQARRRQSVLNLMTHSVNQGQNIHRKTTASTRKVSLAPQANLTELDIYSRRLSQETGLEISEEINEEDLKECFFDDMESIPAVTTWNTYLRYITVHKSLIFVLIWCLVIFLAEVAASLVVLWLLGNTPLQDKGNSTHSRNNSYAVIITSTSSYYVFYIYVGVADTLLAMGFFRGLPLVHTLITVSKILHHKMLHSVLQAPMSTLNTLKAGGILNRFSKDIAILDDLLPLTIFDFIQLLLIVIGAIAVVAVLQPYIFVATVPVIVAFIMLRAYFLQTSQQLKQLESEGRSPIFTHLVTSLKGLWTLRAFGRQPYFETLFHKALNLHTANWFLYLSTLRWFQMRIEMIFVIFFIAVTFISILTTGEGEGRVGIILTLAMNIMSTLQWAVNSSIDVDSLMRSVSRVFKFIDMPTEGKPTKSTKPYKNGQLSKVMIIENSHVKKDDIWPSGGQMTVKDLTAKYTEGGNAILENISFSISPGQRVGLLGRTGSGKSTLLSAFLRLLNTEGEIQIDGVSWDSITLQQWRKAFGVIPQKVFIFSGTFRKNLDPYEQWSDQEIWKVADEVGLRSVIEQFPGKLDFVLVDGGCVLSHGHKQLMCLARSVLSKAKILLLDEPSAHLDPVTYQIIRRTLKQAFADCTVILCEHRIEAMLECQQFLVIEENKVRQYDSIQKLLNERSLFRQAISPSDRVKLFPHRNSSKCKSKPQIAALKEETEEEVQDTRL
EXPERIMENTAL_ENDPOINT: Maximum % activity (with co-corrector)

COc1ccc(C(C)(C)C)cc1CN[C@H]1[C@H](C23CC(C2)C3)[C@@H](C(=O)O)N(C(=O)OC(C)C)[C@H]1c1ccccc1 :: +++ (≥350)
COc1nc(C(C)(C)C)ccc1CN[C@H]1[C@H](C(C)(C)C)[C@@H](C(=O)O)N(C(=O)C2Cc3ccccc3O2)[C@H]1c1ccccc1 (single isomer, unassigned) :: +++ (≥350)
COc1ccc(-c2cncnc2)cc1CN[C@H]1[C@H](C(C)(C)C)[C@@H](C(=O)O)N(C(=O)C2CCCCC2)[C@H]1c1ccccc1 :: ++ (≥150 and <350)
CC(C)(C)[C@H]1[C@H](Nc2ncccc2OCc2ccccc2)[C@H](c2ccccc2)N(C(=O)C2CCCCC2)[C@@H]1C(=O)O :: ++ (≥150 and <350)

response.value for CCC(C)c1cnc(OC)c(CN[C@H]2[C@H](C(C)(C)C)[C@@H](C(=O)O)N(C(=O)C3CCCCC3)[C@H]2c2ccccc2)c1 (some centres unmarked) (field: Maximum % activity (with co-corrector)) = +++ (≥350)

Field Maximum % activity (with co-corrector) (entry "COc1ccc(C(C)(C)C)cc1CN[C@H]1[C@H](C(C)(C)C)[C@@H](C(=O)O)N(C(=O)c2cc(F)cc3c2OCOC3)[C@H]1c1ccccc1" ) reads +++ (≥350)

Consider "COc1ccc(C(C)(C)C)cc1CN[C@H]1[C@H](C(C)(C)C)[C@@H](C(=O)O)N(C(=O)OCc2ccccc2Cl)[C@H]1c1ccccc1" . Its measured Maximum % activity (with co-corrector) is +++ (≥350)

Entry COc1ccc(C(C)(C)C)cc1CN[C@H]1[C@H](C(C)(C)C)[C@@H](C(=O)O)N(C(=O)C2CC2c2cccs2)[C@H]1c1ccccc1 (some centres unmarked) , Maximum % activity (with co-corrector) reported as +++ (≥350)

According to the records, this compound COc1nc(C(C)(C)C)ccc1CN[C@H]1[C@H](C(C)(C)C)[C@@H](C(=O)O)N(C(=O)[C@@H]2CCC[C@H](OC)C2)[C@H]1c1ccccc1 (relative stereo) displays Maximum % activity (with co-corrector) of +++ (≥350)

Lookup result for "COc1ccc(C23CC4CC(CC(C4)C2)C3)cc1CN[C@H]1[C@H](C(C)(C)C)[C@@H](C(=O)O)N(C(=O)C2CCCCC2)[C@H]1c1cccnc1N(C)C" ; measured Maximum % activity (with co-corrector): +++ (≥350)

The compound identified as COc1ccc(C(C)(C)C)cc1CN[C@H]1[C@H](C(C)(C)C)[C@@H](C(=O)O)N(C(=O)C(C)Oc2cc(C)cc(C)c2)[C@H]1c1ccccc1 (some centres unmarked) registered its Maximum % activity (with co-corrector) at +++ (≥350)

Maximum % activity (with co-corrector) for "CC(C)(C)[C@H]1[C@H](Nc2nc(Cl)c(F)cc2C#N)[C@H](c2ccccc2)N(C(=O)C2CCCCC2)[C@@H]1C(=O)O" is ++ (≥150 and <350)

Reported Maximum % activity (with co-corrector) ( "COc1ccc(C(C)(C)C)cc1CN[C@H]1[C@H](C23CC(C2)C3)[C@@H](C(=O)O)N(C(=O)OC(C)C)[C@H]1c1cccnc1OC" ) = +++ (≥350)

Summary for this compound, "CC(C)(C)[C@H]1[C@H](NCC2(c3ccccc3Cl)CCOCC2)[C@H](c2ccccc2)N(C(=O)C2CCCCC2)[C@@H]1C(=O)O" : Maximum % activity (with co-corrector) is +++ (≥350)

Query "COc1ccc(C2(C)CCC2)cc1CN[C@H]1[C@H](C(C)(C)C)[C@@H](C(=O)O)N(C(=O)[C@@H]2CCCO2)[C@H]1c1ccccc1C1CC1" yields Maximum % activity (with co-corrector) of +++ (≥350)

Record summary for "COc1ccc(C(C)(C)C)cc1CN[C@H]1[C@H](C(C)(C)C)[C@@H](C(=O)O)N(C(=O)c2cccnc2)[C@H]1c1ccccc1" : reported Maximum % activity (with co-corrector) = +++ (≥350)

For reference, reported Maximum % activity (with co-corrector) for "Cc1cc(C)c(C#N)c(N[C@H]2[C@H](C(C)(C)C)[C@@H](C(=O)O)N(C(=O)C3CCCCC3)[C@H]2c2ccccc2)n1" stands at +++ (≥350)

Reported Maximum % activity (with co-corrector) ( "COc1ncc(C(C)(C)C)cc1CN[C@H]1[C@H](C(C)(C)C)[C@@H](C(=O)O)N(C(=O)C2CCCCC2)[C@H]1c1ccccc1" ) = +++ (≥350)

For "COc1ccc(C(F)(F)F)cc1CN[C@@H]1[C@@H](C(C)(C)C)[C@H](C(=O)O)N(C(=O)C2CCCCC2)[C@H]1c1ccccc1" the compound record lists Maximum % activity (with co-corrector) as ++ (≥150 and <350)

// Maximum % activity (with co-corrector) lookup, compound = "COc1ccc(C(C)(C)C)cc1CN[C@H]1[C@H](C(C)(C)C)[C@@H](C(=O)O)N(C(=O)CC2(O)CCC2)[C@H]1c1ccccc1" , result: +++ (≥350)
